These data points were gathered from the supplement of paper PMC10567573.

B1: STX5 (parent)
chain: RSEFTLMAKRIGKDLSNTFAKLEK

Variants of: B1
Procedure Summary: protein stability index of a GFP-peptide fusion (GPS, HEK-293T) (PSI 1-6); higher = more stable;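 further: lentivirally expressed fusions sorted by FACS into six bins by GFP to DsRed ratio, PSI derived from sequencing read proportions per bin multiplied by bin number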
Assay Setup: c terminus: a fixed tail appended

{"columns": ["Variant Descriptor", "protein stability index"],
 "data": [
  ["M7D", 4.15],
  ["T5L", 2.46],
  ["F4S", 3.69],
  ["D14Y", 2.65],
  ["F4L", 2.33],
  ["M7H", 2.03],
  ["L22I", 4.01],
  ["L6R", 3.66],
  ["K24R", 2.5],
  ["R10N", 2.36],
  ["K24V", 2.42],
  ["D14M", 2.59],
  ["E23L", 3],
  ["I11Q", 3.33],
  ["A20C", 3.2],
  ["R10C", 2.66],
  ["L15W", 2.05],
  ["K21F", 2.61],
  ["S16V", 3.75],
  ["L6V", 2.28],
  ["K9Y", 2.99],
  ["A20N", 1.84]
]}
